test protocol: method code SF-AS, from DOI: 10.2116/analsci.13.897
details: pH 2.0
quantity kind: logD
// keep it numeric: no unit symbol after the value

Request: Indicate its recorded logD; the compound in question is CCC(C(=O)O)c1ccccc1 (stereo unspecified)
Response: 2.47

* * *

quantity kind: logP
// keep it numeric: no unit symbol after the value

Here's what some known entries look like.
{"columns": ["compound", "observed"],
 "data": [
  ["CCCN1CC(C)n2c(nc3ccccc3c2=O)C1C (centres undefined)", 1.45],
  ["CC1c2nc3ccccc3c(=O)n2C(C)CN1C (centres undefined)", 0.44],
  ["CCN1CC(C)n2c(nc3ccccc3c2=O)C1C (centres undefined)", 1.58]
]}

Now turn to the next compound.
Request: Indicate its recorded logP; the compound in question is CCCN1CCn2c(nc3ccccc3c2=O)C1C (centres undefined)
Response: 1.07

* * *

quantity kind: logP
// keep it numeric: no unit symbol after the value

Here's what some known entries look like.
{"columns": ["compound", "logP"],
 "data": [
  ["Clc1ccc2c(c1)CCc1cccnc1C2=C1CCNCC1", 2.56],
  ["CN1CCC(=C2c3ccccc3CCc3cccnc32)CC1", 3.59]
]}

Now turn to the next compound.
Request: Indicate its recorded logP; the compound in question is OC(CCCN1CCC(C(O)(c2ccccc2)c2ccccc2)CC1)c1ccccc1 (stereo not drawn)
Response: 3.9

* * *

Reported logP values for a set of compounds
test protocol: method code SF-AS, from Suikov, S.Yu.; Bondarenko, A.V.; Bogza, S.L.; Lutsyk, A.I. (2003). Distribution of 5-aminopyrazoles and 5-aminoisoxazoles in the octanol-water system. Ukr. Khim. Zh. (Russ. Ed.), 69(5/6)31-34.
// keep it numeric: no unit symbol after the value

{"columns": ["compound structure", "observed"],
 "data": [
  ["Cc1noc(N)c1-c1ccccc1", 2.02]
]}

Now turn to the next compound.
Request: Indicate its recorded logP; the compound in question is Cc1c(-c2ccccc2)n[nH]c1N
Response: 1.65

* * *

Reported logP values for a set of molecules
test protocol: method code SF-AS, from PMID: 5136171
// keep it numeric: no unit symbol after the value

Here's what some known entries look like.
{"columns": ["compound structure", "logP"],
 "data": [
  ["CCOC(=O)c1cnc2cc(OCCOC)c(OCC(C)C)cc2c1O", 1.84],
  ["CCOC(=O)c1cnc2cc(OCCOC)c(OC(C)C)cc2c1O", 1.86],
  ["CCCCOc1cc2c(O)c(C(=O)OCC)cnc2cc1OCCOC", 1.72]
]}

Now turn to the next molecule.
Request: Indicate its recorded logP; the molecule in question is CCCOc1cc2c(O)c(C(=O)OCC)cnc2cc1OCCOC
Response: 1.7

* * *

Reported logD values for a set of molecules
test protocol: method code SF, from DOI: 10.1515/znc-1979-1128
details: pH 7.4
// keep it numeric: no unit symbol after the value

{"columns": ["molecule", "observed"],
 "data": [
  ["c1ncncn1", -0.73]
]}

Now turn to the next molecule.
Request: Indicate its recorded logD; the molecule in question is CC1=C(C)C(O)N(c2ccc(C)c(C)c2)C1=O (configuration not stated)
Response: 2.36

* * *

test protocol: method code SF-AS, from DOI: 10.1139/cjpp-75-12-1362, PMID: 9534947
Reported logP values for a set of molecules
// keep it numeric: no unit symbol after the value

{"columns": ["compound structure", "logP"],
 "data": [
  ["CC(=O)N/N=C/c1c(O)ccc2ccccc12", 2.91],
  ["COc1ccc(C(=O)N/N=C\\c2c(O)ccc3ccccc23)cc1", 4.06],
  ["O=C(N/N=C/c1c(O)ccc2ccccc12)c1ccc([N+](=O)[O-])cc1", 3.58],
  ["O=C(N/N=C/c1c(O)ccc2ccccc12)c1ccco1", 3.41]
]}

Request: Indicate its recorded logP; the molecule in question is O=C(N/N=C/c1c(O)ccc2ccccc12)c1ccc(O)cc1
Response: 3.95

* * *

test protocol: method code SF-AS, from DOI: 10.1016/j.ejmech.2015.02.036, PMID: 25728022
details: pH 7.4
quantity kind: logD
// keep it numeric: no unit symbol after the value

Here's what some known entries look like.
{"columns": ["compound structure", "observed"],
 "data": [
  ["C=CCn1c(C)nc2cc(Nc3nc(N4CCCC4)nc4[nH]cnc34)ccc21", 2.53],
  ["C=CCn1c(C)nc2cc(Nc3nc(N4CCCCC4)nc4[nH]cnc34)ccc21", 1.55],
  ["CCCCn1c(C)nc2cc(Nc3nc(N4CCCC4)nc4[nH]cnc34)ccc21", 1.36]
]}

Now turn to the next compound.
Request: Indicate its recorded logD; the compound in question is CCCCn1c(C)nc2cc(Nc3nc(Cl)nc4[nH]cnc34)ccc21
Response: 1.28

* * *

Reported logP values for a set of compounds
test protocol: method code SF-AS, from DOI: 10.1016/0021-9673(91)80064-n
// keep it numeric: no unit symbol after the value

Here's what some known entries look like.
{"columns": ["compound structure", "logP"],
 "data": [
  ["C=CC(=O)NCCN(C)C", -0.25],
  ["C=CC(=O)NCCCN(C)C", 0],
  ["C=CC(=O)NCCc1c[nH]cn1", -0.21]
]}

Request: Indicate its recorded logP; the compound in question is C=CC(=O)NCCCN1CCSCC1
Response: 0.54

Request: Indicate its recorded logP; the compound in question is C=CC(=O)NCCCN(CCO)CCO
Response: -0.6

Request: Indicate its recorded logP; the compound in question is C=CC(=O)NCCCN(CC)CC
Response: 0.72

* * *

test protocol: method code SF, from DOI: 10.1016/0360-3016(89)90912-7, PMID: 2703384
details: pH 7.4
Decision: logD beneath 0.04 gives Condition met; logD meeting or exceeding 0.04 gives Condition not met.

{"columns": ["compound", "assigned label"],
 "data": [
  ["COCC(F)Cn1ccnc1[N+](=O)[O-] (stereo unspecified)", "Condition not met"],
  ["O=[N+]([O-])c1cn(CC(O)CF)cn1 (stereo unspecified)", "Condition met"],
  ["COCCNC(=O)C(F)(F)Cn1ccnc1[N+](=O)[O-]", "Condition met"],
  ["O=C(Cn1cnc([N+](=O)[O-])c1)NCCO", "Condition met"]
]}

Turning now to a further compound:
Request: Just wondering, is logD of O=[N+]([O-])c1cn(CC(F)(F)CO)cn1 below 0.04?
Response: Condition met

* * *

test protocol: method code SF-RC, from DOI: 10.1002/qsar.19880070404
details: pH 0.0
quantity kind: logD
// keep it numeric: no unit symbol after the value

Request: Indicate its recorded logD; the compound in question is O=C(O)Cc1ccccc1I
Response: 2.33

* * *

test protocol: method code SF, from DOI: 10.1246/bcsj.60.4357
quantity kind: logP

Request: Indicate its recorded logP; the compound in question is CCc1cc([N+](=O)[O-])cc([N+](=O)[O-])c1O
Response: 2.67

* * *

quantity kind: logP
// keep it numeric: no unit symbol after the value

Here's what some known entries look like.
{"columns": ["compound structure", "logP"],
 "data": [
  ["Ic1ccc2nc(-c3ccc(-c4nccs4)cc3)cn2c1", 3.06],
  ["Ic1ccc2nc(-c3ccc(-c4cc[nH]n4)cc3)cn2c1", 3.2],
  ["Ic1ccc2nc(-c3ccc(-c4cnco4)cc3)cn2c1", 3.64]
]}

Request: Indicate its recorded logP; the compound in question is CN(C)c1ccc(-c2cn3cc(I)ccc3n2)cc1
Response: 4.03

Request: Indicate its recorded logP; the compound in question is Ic1ccc2nc(-c3ccc(-c4ncon4)cc3)cn2c1
Response: 3.12

* * *

quantity kind: logP
// keep it numeric: no unit symbol after the value

Request: Indicate its recorded logP; the compound in question is COc1cccc(N2CCN(CCN(C)C)C2=O)c1
Response: 1.76

* * *

Reported logP values for a set of molecules

Request: Indicate its recorded logP; the molecule in question is Nc1nc[nH]n1
Response: -0.87

Request: Indicate its recorded logP; the molecule in question is CCOC(=O)COc1cccc2ccccc12
Response: 2.9

Request: Indicate its recorded logP; the molecule in question is CS(=O)(=O)c1ccc(OCC(=O)O)cc1
Response: 0.06

* * *

Reported logP values for a set of compounds
test protocol: method code SF, from DOI: 10.3109/00498258709043934, PMID: 3564538
// keep it numeric: no unit symbol after the value

Here's what some known entries look like.
{"columns": ["compound structure", "logP"],
 "data": [
  ["CC(C)OC(=O)C(C(=O)OC(C)C)=C1SC=CS1", 3.75],
  ["CCCOC(=O)C(C(=O)OCCC)=C1SC=CS1", 3.93]
]}

Request: Indicate its recorded logP; the compound in question is CCOC(=O)C(C(=O)CC)=C1SC=CS1
Response: 2.9
